System: SW-620 colon
Test: NCI-60 one-dose screen, 48 h (100 = growth as untreated, 0 = no growth, -100 = all killed)
Conditions: 10 µM unless noted
About 83,000 compounds went through this panel and 20% of them were active in at least one assay; those are over-represented in the sample as a whole.
Measured growth by item
Provide the reading as a plain figure in %.

Look over these answered cases.
COc1cc(-c2nc(SCC(=O)Nc3ccc(C(C)=O)cc3)[nH]c(=O)c2C#N)cc(OC)c1OC	25.8
COc1cc(NS(C)(=O)=O)ccc1Cc1c2ccccc2nc2ccccc12	26.6
CN(C)C(=O)Nc1nc2cc(Cl)c(Cl)cc2[nH]1	29.8
Fc1ccc(/C=N/n2c(-c3cc(Cl)cc(Cl)c3Cl)nn(CNc3ccc(Cl)nn3)c2=S)cc1	112
CCc1c(C)c2cc3nc(NCc4ccccc4)oc3c(C)c2oc1=O	95.8
N#Cc1c(N)nc(Cl)c(C#N)c1C(=O)c1ccccc1	43.3
CN1C(=O)C2(NN=C(c3cccc4ccccc34)S2)c2ccccc21 (stereo not given)	35.5
Cc1cc(Nc2ccc(Cl)c(Cl)c2)nc(N)n1	97.7
C#CCn1c(-c2cc(OC)c(OC)cc2Br)nc(-c2ccccc2)c1-c1ccccc1	23.9
Cc1cccc(Cc2cnc(NC(=O)CCc3ccc(C)o3)s2)c1	30

stdin: Param item = O=c1nc(N2CCOCC2)oc2c(-c3cccc4ccccc34)cccc12 ; retrieve measured growth.
stdout: 97.9

stdin: Which growth value belongs to O=[N+]([O-])c1cccc(C(c2ccccc2)c2ccccc2)c1 ?
stdout: 87.7
